test system: SK-OV-3 ovarian; test: NCI-60 one-dose screen, 48 h (100 = growth as untreated, 0 = no growth, -100 = all killed); details: 10 µM
The panel holds about 83,000 compounds, 20% with a hit somewhere; the sample as a whole holds those more often.
Consider the following compounds and their measured growth readings.
Write the answer as a number in %, unit excluded.

Illustrative cases are given below, each with its answer.
COMPOUND: CN1CCN(c2ccc(Nc3nc(NCCNC(=O)c4ccc(C(F)(F)F)cc4)c4sccc4n3)cc2)CC1
growth [%]: 77
--
COMPOUND: N#Cc1c(NC(=O)c2ccc(C(F)(F)F)c(Cl)c2)sc2c1CCC(=O)C2
growth [%]: -30.1
--
COMPOUND: N[C@@H](CSSC[C@H](N)C(=O)Nc1ccc(OCC2CCCC2)cc1)C(=O)Nc1ccc(OCC2CCCC2)cc1
growth [%]: -97.9
--
COMPOUND: Cc1noc2c(Cc3ccc([N+](=O)[O-])cc3)nn(CC(=O)N/N=C/c3ccc(Br)cc3)c(=O)c12
growth [%]: 86.2

# query: growth of entry CN1C(=O)/C(=C/c2nccs2)SC1=S
105

Continue with COc1ccc(C(=O)/C=C/c2cc(F)cc(C(F)(F)F)c2)cc1S(N)(=O)=O
42.1

What do you get for CN1CCN(c2ccc(Nc3nc(NCCCNC(=O)c4ccc(F)cc4)c4sccc4n3)cc2)CC1 ?
102

Please do the same for Cc1ccc2nc(-c3ccc(-c4nnc(SCC(=O)Nc5ccc(Br)cc5)o4)cc3)[nH]c2c1 as well.
72.1

Thanks! And CC(=C(c1ccc(OCCCN(C)C)cc1)c1ccc(OCCCN(C)C)cc1)c1ccccc1 ?
-90.3

Request: COc1ccc(C(=O)/C=C/c2cc(C(F)(F)F)cc(C(F)(F)F)c2)cc1S(N)(=O)=O
20

Can you check CC1(C)CC[C@]2(C(=O)O)CC[C@]3(C)C(=CC[C@@H]4[C@@]5(C)C/C(=C/c6ccncc6)[C@H](O)C(C)(C)[C@@H]5CC[C@]43C)[C@@H]2C1 next?
65

Same lookup for C=C(C)[C@@H]1CC[C@]2(C(=O)OC)CC[C@]3(C)[C@H](CC[C@@H]4[C@@]5(C)CC[C@H](N)C(C)(C)[C@@H]5CC[C@]43C)[C@@H]12 , please.
-54.8

Next entry: O=C(NO)c1ccc(Cn2ccc3c(NCc4ccccc4)ncnc32)cc1
-30.5

How about this compound: Cc1cccc2cc(-c3cc(-c4ccccc4)nc(=S)[nH]3)c(Cl)nc12
116

Input Cc1ccc(-c2ccc(SCC(=O)Nc3ccc(S(N)(=O)=O)cc3Br)nn2)cc1
101

Check CS(=O)(=O)Nc1ccc(-c2ccc3c(c2)ncn3-c2ccc(NC(=O)Nc3ccc(Cl)c(C(F)(F)F)c3)cc2)cc1 too.
-53.4

Please do the same for COc1cccc(-c2nn(-c3ccccc3)cc2-c2ccnc(NCCCNC(=O)Nc3ccc(F)cc3)c2)c1 as well.
3.71

Same lookup for CNC(=O)c1cccc(N2CCc3c2ccc(NC(=O)Nc2ccc(N4CCN(C)CC4)c(C(F)(F)F)c2)c3F)c1 , please.
45.3

Note, next up: C=C1CCC2C3(C)COC(c4c(F)cccc4F)OC3CCC2(C)C1CC(O)C1=CCOC1=O (stereo unspecified)
100

What do you have for CN1CCCN(Cc2ccc(C(=O)Nc3cccc(Nc4ccc5c(O)cccc5n4)c3)cc2C(F)(F)F)CC1 ?
-58.9

* * *

test system: NCI/ADR-RES ovarian; assay: NCI-60 one-dose screen, 48 h (100 = growth as untreated, 0 = no growth, -100 = all killed); details: 10 µM
The panel holds about 83,000 compounds, 20% with a hit somewhere; the sample as a whole holds those more often.
Response field class: string, computed from recorded growth by ranges A: < 10%; B: ≥ 10% and < 60%; C: ≥ 60%

COMPOUND: CN1C(=O)/C(=C/c2ccc3ncsc3c2)NC1=NC12CC3CC(CC(O)(C3)C1)C2
CLASSIFICATION: B
--
COMPOUND: O=C1Nc2cc(-c3ccc(NC(=O)c4cccs4)cc3)ccc2/C1=C/c1ccc[nH]1
CLASSIFICATION: C
--
COMPOUND: CC(C)C1=C[C@@]23CC[C@@H]4[C@](C)(CCC[C@]4(C)C(=O)NCc4ccccc4)[C@H]2C[C@@H]1[C@H]1C(=O)CCC(=O)[C@H]13
CLASSIFICATION: C
--
COMPOUND: COc1ccc(-c2cc(C(=O)N=Nc3c(O)[nH]c4ccc(F)cc34)c3ccccc3n2)cc1
CLASSIFICATION: C
--
COMPOUND: O=C1c2ccccc2C(=O)c2c1c(C(=O)c1ccc(Cl)cc1)n1c2ccc2c3ccccc3ccc21
CLASSIFICATION: C
--
COMPOUND: CC(C)CCSc1nc(NC2CC2)c(C#N)c(-c2ccc(C(C)C)cc2)n1
CLASSIFICATION: C

Hello team, could you let me know which band the following compound falls into: O=S(=O)(Nc1ncccn1)c1ccc(-n2c(-c3ccc(Br)cc3)nc(-c3ccccc3)c2-c2ccccc2)cc1
B

// next record Nc1nnc(-c2c[nH]c3ccc(F)cc23)c(-c2c[nH]c3ncccc23)n1
C

What about O=C(Nc1cccc([N+](=O)[O-])c1)Nc1cccc([N+](=O)[O-])c1 ?
C

Follow-up item: O=C(N=Nc1c(O)[nH]c2ccc(Br)cc12)c1ccc2nc(-c3ccccc3)[nH]c2c1
C

Do the same for Cc1cc(C)cc(Oc2cccc(-c3c(C)nnn3C3CCN(CCN(C)C)CC3)n2)c1 please
B

Same question for O=c1cc(-c2ccccc2)oc2cc(OCCCNCc3ccccc3)cc(O)c12 please.
A

Also need CC[C@]12C=CCN3CC[C@@]4(c5cc(C#CCNc6ccc(C)c(Nc7nccc(-c8cccnc8)n7)c6)c(OC)cc5N(C)[C@H]4[C@@](O)(C(=O)OC)[C@@H]1OC(C)=O)C32 (stereo not given in full) , thanks.
B

Please do the same for COc1ccc(C(=O)Nc2sc3c(c2C#N)CCC(=O)C3)cc1C(F)(F)F as well.
A

Quick one: COc1ccc2cc([C@H](C)C(=O)NCc3ccccc3)ccc2c1
A

Cool, now O=C(CSc1nnc(-c2ccc3nc(-c4ccccc4)[nH]c3c2)o1)Nc1ccc(Cl)cc1
B

Try this compound next: C=C[C@H]1[C@H](O[C@@H]2OC(CO)[C@@H](O)[C@H](O)C2OC(=O)c2c(O)cc(O)cc2-c2cccc(O)c2)OC=C2C(=O)OCC[C@H]21 (stereo not given in full)
C

What about this compound? CC(C)(C)Nc1nc2cc(Cl)c(Cl)cc2nc1S(C)(=O)=O
A

Here is the next compound: CCCCCc1ccc(S(=O)(=O)Nc2cc(-c3csc(N(C)C(C)=O)n3)ccc2N2CCN(C)CC2)cc1
B

Follow-up item: CC(=O)Nc1ccc(-c2cn(-c3cccc(C(=O)Nc4ccc(Cl)c(C(F)(F)F)c4)c3)nn2)cn1
B

Item: COc1ccc(OC)c(-c2cc(-c3c[nH]c4ccccc34)nc(N)c2C#N)c1
A

Another compound to look at: O=C(Nc1ccc(Cl)c(C(F)(F)F)c1)c1cncc(C#Cc2cnc3ccc(N4CCOCC4)nn23)c1
A

// query: N[C@@H](CSSC[C@H](N)C(=O)Nc1ccc(OCC2CCCC2)cc1)C(=O)Nc1ccc(OCC2CCCC2)cc1
A

* * *

Test system: UACC-62 melanoma
Assay: NCI-60 one-dose screen, 48 h
Details: 10 µM
Method: Growth inhibition of the UACC-62 human tumor cell line is measured as a screen for anti-cancer activity. Cells are grown in 96 well plates and exposed to the test compound for 48 hours. Compounds are tested at a single concentration, which is 10^-5 M for most compounds. The reported endpoint is percent growth (GI% or GIPRCNT), where numbers from 0 - 100% represent growth inhibition, and numbers from -100% - 0 represent cell death. For example, a value of 40 represents 60% growth inhibition. […]
About 83,000 compounds went through this panel and 20% of them were active in at least one assay; those are over-represented in the sample as a whole. Calls of active or inactive are those of the source. The calls were made as follows: active = growth percent below 10; inactive = the rest.
Respond using exactly one of the listed classes: active, inactive

Status in this test for Cc1ccc(C(=O)N/C(=C2/OCCN2C)[P+](c2ccccc2)(c2ccccc2)c2ccccc2)cc1 ?
inactive

* * *

Test system: PC-3 prostate
Assay: NCI-60 one-dose screen, 48 h (100 = growth as untreated, 0 = no growth, -100 = all killed)
Details: 10 µM
Procedure: Growth inhibition of the PC-3 human tumor cell line is measured as a screen for anti-cancer activity. Cells are grown in 96 well plates and exposed to the test compound for 48 hours. Compounds are tested at a single concentration, which is 10^-5 M for most compounds. The reported endpoint is percent growth (GI% or GIPRCNT), where numbers from 0 - 100% represent growth inhibition, and numbers from -100% - 0 represent cell death. For example, a value of 40 represents 60% growth inhibition. […]
The panel holds about 83,000 compounds, 20% with a hit somewhere; the sample as a whole holds those more often.
Exam item: assign Yes to entries whose growth is below 40% and No to entries at or above 40%. Note that a value of exactly 40% receives No.

Completed entries (count: 5):
COMPOUND: COc1cc2c3c(n(CCCN4CCOCC4)c(=O)c2cc1OC)-c1nc2c(cc1C3=O)OCO2
CLASSIFICATION: No

COMPOUND: O=C(Nc1ccc(Cl)c(C(F)(F)F)c1)c1cncc(C#Cc2cnc3ccc(N4CCOCC4)nn23)c1
CLASSIFICATION: Yes

COMPOUND: N#Cc1ccc(-c2nn(-c3ccc(C(=O)O)cc3)cc2CNc2cc(Cl)cc(C(F)(F)F)c2)cc1
CLASSIFICATION: Yes

COMPOUND: CN(CCO)c1oc(-c2ccccc2)nc1[P+](c1ccccc1)(c1ccccc1)c1ccccc1
CLASSIFICATION: Yes

COMPOUND: Cc1cc(C)nc(NS(=O)(=O)c2ccc(N/C(N)=N/c3nccc(-c4cccs4)n3)cc2)n1
CLASSIFICATION: No

Please determine if CC(=O)Nc1ccc(-c2cn(-c3cccc(C(=O)Nc4ccc(Cl)c(C(F)(F)F)c4)c3)nn2)cn1 is below 40% in terms of growth.
Yes

Please give the result for N#Cc1c(NC(=O)c2ccc(C(F)(F)F)cc2)sc2c1CCC(=O)C2 too.
Yes

Likewise for O=c1c2ccccc2nc(COc2ccccc2)n1/N=C/c1ccc(N2CCCC2)cc1 ?
No

Now this one: COc1ccc(CCN2C(=O)/C(=C/c3csc(C#N)n3)SC2=S)cc1OC
No

What do we get for O=C(c1ccc(Cl)cc1)C1[C@H](c2ccc(Br)cc2)[C@@H](c2ccccc2)NC12C(=O)Nc1ccc(Br)cc12 (stereo partly drawn) ?
Yes

Now consider CCOC(=O)C1=C(N)N(c2ccc(C)cc2)C2=C(C(=O)CC(C)(C)C2)C1c1ccccc1OC (stereo not drawn) and answer again.
No

Then what about the compound CCCn1c(=O)c2[nH]c(-c3ccc(OCc4nc5ccccc5[nH]4)cc3)nc2n(CCC)c1=O ?
No

Record: CC(=C(c1ccc(OCCN2CCCCC2)cc1)c1ccc(OCCN2CCCCC2)cc1)c1ccccc1
No

And CCN1CCN(Cc2ccc(NC(=O)c3cccc(-n4cc(-c5ccc(NC(C)=O)nc5)nn4)c3)cc2C(F)(F)F)CC1 ?
No
